Tested on: RARg:RXRa (NR concentration 270 nM, RXRa partner concentration 90 nM)
ASSAY_DETAILS: PBM binding z-score (relative to random genomic background probes); higher = stronger binding; sequences stand for … in GC…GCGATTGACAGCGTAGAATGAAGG
Threshold rule: PBM binding z-score greater than or equal to 2 is rule met; below that, rule not met.

Decide: PBM binding z-score of `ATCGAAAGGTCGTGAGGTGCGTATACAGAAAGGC` >= 2?
rule met

Decide: PBM binding z-score of `ATCGAAACGTCGAGGTGAGTATAGAGAAAGGGAA` >= 2?
rule not met

Decide: PBM binding z-score of `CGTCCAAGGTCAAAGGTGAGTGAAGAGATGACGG` >= 2?
rule met

Decide: PBM binding z-score of `ATATGTAGGTTACAACCGGGTCATTCAGGCTATG` >= 2?
rule met

Decide: PBM binding z-score of `ATCGAAATGTCGAAGGTGAGTATACCCACCCGAA` >= 2?
rule not met

Decide: PBM binding z-score of `TAGCCTAGGTCATCGGGCCAGTATAGTACGCATC` >= 2?
rule met

Decide: PBM binding z-score of `ATCGAAAGGTCGACGAGGTGCGTATACACCGTTT` >= 2?
rule met

Decide: PBM binding z-score of `GCTCGGAGGACAAGGTCAGAGCCTTGTCCGTAGA` >= 2?
rule met

Decide: PBM binding z-score of `ACTTACGGGTCAACGAGCTTATAGCACGCGTATA` >= 2?
rule met

Decide: PBM binding z-score of `CCTACAGGGTCAGCTAGGCCAGAGTAGGGACGGC` >= 2?
rule met

Decide: PBM binding z-score of `AGAATCAGGTTATTAAGATCAGGGAATTGCGGTC` >= 2?
rule not met

Decide: PBM binding z-score of `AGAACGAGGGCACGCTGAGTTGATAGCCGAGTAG` >= 2?
rule not met

Decide: PBM binding z-score of `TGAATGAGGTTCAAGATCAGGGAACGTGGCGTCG` >= 2?
rule not met

Decide: PBM binding z-score of `CCTTACGGGACAAGGTTATAGCACGGGTGGTACG` >= 2?
rule not met

Decide: PBM binding z-score of `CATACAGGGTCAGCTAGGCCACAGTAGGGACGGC` >= 2?
rule met

Decide: PBM binding z-score of `ATCGACAGGTCGAAGGTGAGTATACCCACCCGAA` >= 2?
rule not met

Decide: PBM binding z-score of `ACTAGTTGGTCAGCTTAGGTCACACACAATTCGG` >= 2?
rule met

Decide: PBM binding z-score of `GCTAGTTGGTCAGTTAAAGGTCACACACCGGTCG` >= 2?
rule met

Decide: PBM binding z-score of `GGAACGAGGGAATTCGAGTTGATAGCATGGCGAT` >= 2?
rule not met

Decide: PBM binding z-score of `ACTAGTAGTTGACTTAGGGCAACCGATACGACGC` >= 2?
rule not met

Decide: PBM binding z-score of `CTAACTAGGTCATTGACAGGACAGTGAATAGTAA` >= 2?
rule met

Decide: PBM binding z-score of `TCATATAGGTAAAGGTGAAAGCCGAACGATATGA` >= 2?
rule not met

Decide: PBM binding z-score of `TCTAGTTGGTCAATGGTCACACACTCGAAATGCG` >= 2?
rule not met

Decide: PBM binding z-score of `CAAACTAGTTCAAAGGTCAAAGTCGAGCCAACCA` >= 2?
rule met

Decide: PBM binding z-score of `GCTCGGAGGACAAGGTCAGAGCTTTGTCCGTAGA` >= 2?
rule met

Decide: PBM binding z-score of `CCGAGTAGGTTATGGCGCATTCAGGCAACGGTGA` >= 2?
rule not met

Decide: PBM binding z-score of `GGAACGAGGGCAAAGTTGAAAGCATCTGTCGACG` >= 2?
rule met

Decide: PBM binding z-score of `TCATATAGGTAAACAGGTGACAGTCCGTAAGTTA` >= 2?
rule not met

Decide: PBM binding z-score of `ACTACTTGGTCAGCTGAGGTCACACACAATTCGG` >= 2?
rule met

Decide: PBM binding z-score of `CGTCAAAGTTCAAGGTGACGTAACAGAAAGCAGC` >= 2?
rule met

Decide: PBM binding z-score of `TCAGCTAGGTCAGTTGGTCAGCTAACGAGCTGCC` >= 2?
rule met

Decide: PBM binding z-score of `TCTCGGTGGACACGAAGGTCAGAGCTTTCCAGAG` >= 2?
rule met

Decide: PBM binding z-score of `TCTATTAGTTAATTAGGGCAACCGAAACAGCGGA` >= 2?
rule not met

Decide: PBM binding z-score of `CGAACTAGGTCAAGGACAGTGTATCTCCGCACGC` >= 2?
rule met

Decide: PBM binding z-score of `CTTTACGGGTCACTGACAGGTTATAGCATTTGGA` >= 2?
rule met

Decide: PBM binding z-score of `CCTAGCGGGCCAGGGTCACTCAAGCATTTCGCTT` >= 2?
rule met

Decide: PBM binding z-score of `CCTAGCAGGCCAAGGTCACTCAAGCATTTCGCTT` >= 2?
rule met

Decide: PBM binding z-score of `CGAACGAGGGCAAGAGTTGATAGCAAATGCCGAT` >= 2?
rule not met

Decide: PBM binding z-score of `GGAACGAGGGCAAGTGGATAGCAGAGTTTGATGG` >= 2?
rule not met

Decide: PBM binding z-score of `TCATATAGGTAATACAGGTGAAAGCCGGCATCTA` >= 2?
rule not met

Decide: PBM binding z-score of `CAAACTAGGTCAAGGCCAAAGTCGGTTTGTGCCA` >= 2?
rule met

Decide: PBM binding z-score of `CCTCGGAGGACATAAGGTCAGAGCTGTCCGCTTT` >= 2?
rule met

Decide: PBM binding z-score of `TCTATTAGTTCAAGGGCAACCGACGAGTCCGTTT` >= 2?
rule met

Decide: PBM binding z-score of `CCTGGTAGGTCATGGTCAGCTAATCTACAGTATG` >= 2?
rule met
